Molecular target: T1, human galectin-10-His (recombinant human galectin-10 with TEV-cleavable N-terminal His-tag) (human)
T1 construct: SEC-MALLS: dimer in solution; also called Gal10-His; humanGal10-His
T1 chain: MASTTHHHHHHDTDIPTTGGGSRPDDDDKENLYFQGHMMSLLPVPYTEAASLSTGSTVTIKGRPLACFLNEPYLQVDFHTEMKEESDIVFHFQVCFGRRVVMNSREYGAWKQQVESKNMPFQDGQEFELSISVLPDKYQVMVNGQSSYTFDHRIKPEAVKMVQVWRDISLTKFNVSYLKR
Assay: BLI tandem on galectin-10-His; competitor: saturating 6F06 mIgG1 (10 ug/mL)
measuredEndpoint: binding signal (nm)

{"binder": "1C09 mouse IgG1 (antibody, V domains shown, VH on mouse IgG1 heavy chain constant domains (CH1-CH2-CH3), VL on mouse lambda light chain constant domain; also called 1C09 mIgG1) VH: QVQLVESGPGLVKPSQTLSLTCTVSGGSITTNSYYWSWIRQPPGKGLEWMGAIAYSGSTYYSPSLKSRTSISRDTSKNQFTLHLSSVTPEDTAVYYCARRPNWYRALDAWGQGTLVTVSS VL: NFMLTQPSAVSVSLGQTARITCQGANLGRYYGIWYQQKPGQAPVQVIYGDSNRPSGIPERFSGSSSGGTATLTISGAQAEDEADYYCQSYESSTSPVFGGGTHLTVL", "binding signal (nm)": "0.04 nm"}

Shifting focus to the binder that follows.
Requested read-out: binding signal (nm). Entry: 6F06 mouse IgG1 (antibody, V domains shown, also called 6F06 mIgG1) VH: QVQLVESGGGLVQPGGSLRLSCAASEFTFSRYSMSWVRQAPGKGLEWVSTINSGGGSTSYVDSVKGRFTISRDNAKNTLYLQMNSLKPEDTAVYYCTKSQGGISFSTQYGMDYWGKGTLVTVSS VL: NFMLTQPSAVSVSLGQTARITCQGGNFGRYYANWYQQKPGQAPVLVIYKDSERPSGIPERFSGSSSGDTATLTISGAQAEDESDYYCQSGSVSDNAVFGGGTHLAVL
0.04 nm

Provenance of the data: patent US20190367619A1
